Source listed as PubChem BioAssay.

Listed here: items and their measured viability.
- protocol summary: drug combination growth inhibition, ovarian cancer – cell-based, oncology-focused library, rucaparib conditional, profiling panel (AID 1508598)
- condition: patient-derived ovarian cancer cells, CellTiter-Glo viability, 144 h; at 0.00122 µM; OCI-C5x cells; without rucaparib; stronger effect = lower value

molecule	unit of measurement	viability
Oc1cccc(-c2nc(N3CCOCC3)c3oc4ncccc4c3n2)c1	%	104
Cc1cc(CS(=O)(=O)c2ccccc2)cc(OCc2ccc(CN3CCC[C@@H]3CO)cc2)c1	%	120
CNC(=O)c1ccc(C)c(-n2c(C)cc(OCc3ccc(F)cc3F)c(Br)c2=O)c1	%	124
O=C(Nc1cccnc1)N1CCC(Cc2cccc(Oc3ccc(C(F)(F)F)cn3)c2)CC1	%	129
Cc1ccc(S(=O)(=O)Nc2nc3ccccc3nc2Nc2ccc3nsnc3c2)cc1	%	132
CCOc1ccn(-c2ccc(F)cc2)c(=O)c1C(=O)Nc1ccc(Oc2ccnc(N)c2Cl)c(F)c1	%	134
CNC(=O)c1cc(Oc2ccc(NC(=O)Nc3ccc(Cl)c(C(F)(F)F)c3)c(F)c2)ccn1	%	90.8
CCC[C@H](NC(=O)/C(C#N)=C/c1cccc(Br)n1)c1ccccc1	%	137
COC(=O)c1ccc2c(C(=Nc3ccc(N(C)C(=O)CN4CCN(C)CC4)cc3)c3ccccc3)c(O)[nH]c2c1	%	128
CCN1CCN(Cc2ccc(-c3cc4c(N[C@H](C)c5ccccc5)ncnc4[nH]3)cc2)CC1	%	123
C/C(=C\C(=O)Nc1ccccc1C(=O)O)c1ccc2ccccc2c1	%	107
CC(C)Oc1ccc(C(=O)N[C@H](CNC(=O)CN(C)C)Cc2ccc(-c3cn4cccc([C@H](C)O)c4n3)cc2)cc1Cl	%	123
Cc1csc(-c2nnc(Nc3ccc(Oc4ncccc4-c4ccnc(N)n4)cc3)c3ccccc23)c1	%	107
COCCn1c2c([n+](Cc3cnccn3)c1C)C(=O)c1ccccc1C2=O	%	93.8
COc1cc(Nc2ncc(F)c(Nc3ccc4c(n3)NC(=O)C(C)(C)O4)n2)cc(OC)c1OC	%	109
CC(C)C[C@H](NC(=O)CNC(=O)c1cc(Cl)ccc1Cl)B1OC(=O)CC(CC(=O)O)(C(=O)O)O1 (stereo partly drawn)	%	123
S=C(NCc1ccc2c(c1)OCO2)N1CCN(c2ncnc3c2oc2ccccc23)CC1	%	100
CC1(C)CCC(c2ccc(Cl)cc2)=C(CN2CCN(c3ccc(C(=O)NS(=O)(=O)c4ccc(N[C@H](CCN5CCOCC5)CSc5ccccc5)c(S(=O)(=O)C(F)(F)F)c4)cc3)CC2)C1	%	34.9
